Just for reference, patent US20240270762A1 is where these values come from.

System: N. gonorrhoeae ATCC 49226
assay_info: Liquid broth MIC in Fastidious broth
test_parameters: Neisseria gonorrhoeae, ATCC49226, read-out: Minimum Inhibitory Concentration, ATCC 49226
readout_label: MIC

Query: Using the record for O=C(NCCS(=O)(=O)N1CCN(C(=O)NC(C(=O)N[C@H]2Cc3ccc(F)c(C(=O)O)c3OB2O)c2cc(F)c(O)c(O)c2Cl)C1=O)Nc1ccc(O)cc1 (stereo partly drawn) , state its measured MIC.
Response: 16 to 32 µg/mL

Query: Using the record for O=C(NCCS(=O)(=O)N1CCN(C(=O)NC(C(=O)N[C@H]2Cc3ccc(F)c(C(=O)O)c3OB2O)c2cc(F)c(O)c(O)c2Cl)C1=O)c1ccccc1 (stereo partly drawn) , state its measured MIC.
Response: 16 to 32 µg/mL

Query: Please report MIC for the following compound: O=C(O)c1c(F)ccc2c1OB(O)[C@@H](NC(=O)C(NC(=O)N1CCN(Cc3ccc(O)c(O)c3Cl)C(=O)C1=O)c1cc(F)c(O)c(O)c1Cl)C2 (stereo partly drawn)
Response: > 64 µg/mL

Query: Supply reported MIC belonging to this compound: O=C(NCCCN1CCN(C(=O)NC(C(=O)N[C@H]2Cc3ccc(F)c(C(=O)O)c3OB2O)c2cc(F)c(O)c(O)c2Cl)C1=O)Nc1cccnc1 (stereo partly drawn)
Response: 16 to 32 µg/mL

Query: Note MIC for the compound shown: O=C(NCCN1CCN(C(=O)NC(C(=O)N[C@H]2Cc3ccc(F)c(C(=O)O)c3OB2O)c2cc(F)c(O)c(O)c2Cl)C1=O)Nc1cccnc1 (stereo partly drawn)
Response: 16 to 32 µg/mL

Query: Assign MIC to the following record: O=C(NCCS(=O)(=O)N1CCN(C(=O)N[C@@H](C(=O)N[C@H]2Cc3ccc(F)c(C(=O)O)c3OB2O)c2cc(F)c(O)c(O)c2Cl)C1=O)Nc1cccnc1
Response: 16 to 32 µg/mL

---

Task for the reader: assign each of the following compounds its reported EC50.
experimental_target: PBP3 from Escherichia coli (K-12) (Escherichia coli, UniProt P0AD68)
Sequence (P0AD68 1-577): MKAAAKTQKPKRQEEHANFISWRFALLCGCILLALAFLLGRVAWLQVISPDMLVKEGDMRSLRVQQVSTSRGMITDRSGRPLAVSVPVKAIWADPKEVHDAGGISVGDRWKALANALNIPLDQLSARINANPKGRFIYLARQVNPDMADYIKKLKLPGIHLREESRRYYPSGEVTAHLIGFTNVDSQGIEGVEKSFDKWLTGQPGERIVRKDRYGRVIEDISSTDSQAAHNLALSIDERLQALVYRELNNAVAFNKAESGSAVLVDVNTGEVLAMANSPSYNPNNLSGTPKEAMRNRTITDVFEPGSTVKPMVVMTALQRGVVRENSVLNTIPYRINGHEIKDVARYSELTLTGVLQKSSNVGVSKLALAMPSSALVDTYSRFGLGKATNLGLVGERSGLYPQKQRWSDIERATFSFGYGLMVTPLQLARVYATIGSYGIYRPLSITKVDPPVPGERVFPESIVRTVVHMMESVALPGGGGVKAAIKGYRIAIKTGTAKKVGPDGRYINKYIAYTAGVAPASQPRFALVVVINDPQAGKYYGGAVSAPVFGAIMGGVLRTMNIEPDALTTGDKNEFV
assay_info: Bocillin-FL fluorescence polarization competition binding, E. coli PBP3

Query: Please give measured EC50 of the following entry: O=C(NCCCN1CCN(C(=O)N[C@@H](C(=O)N[C@H]2Cc3ccc(F)c(C(=O)O)c3OB2O)c2cc(F)c(O)c(O)c2Cl)C(=O)C1=O)c1ccncc1O
Response: < 10 µM

Query: Quickly give me recorded EC50 for CN1CCN(C(=O)NC(C(=O)N[C@H]2Cc3cccc(C(=O)O)c3OB2O)c2ccc(P(=O)(O)O)cc2)C1=O (stereo partly drawn)
Response: < 10 µM

Query: Note EC50 for the compound shown: CCN1CCN(C(=O)NC(C(=O)N[C@H]2Cc3cccc(C(=O)O)c3OB2O)c2ccc(P(=O)(O)O)cc2F)C(=O)C1=O (stereo partly drawn)
Response: < 10 µM

Query: Give recorded EC50. O=C(NCCCN1CCN(C(=O)NC(C(=O)N[C@H]2Cc3ccc(F)c(C(=O)O)c3OB2O)c2cc(F)c(O)c(O)c2Cl)C1=O)c1ccc(O)cc1 (stereo partly drawn)
Response: 10 to 50 µM

Query: Tell me EC50 reported for O=C(O)c1cccc2c1OB(O)[C@@H](NC(=O)[C@H](NC(=O)c1c[nH]ccc1=O)c1ccc(P(=O)(O)O)cc1)C2
Response: < 10 µM

Query: Give a short answer stating reported EC50 for Nc1nc(C(=O)N[C@@H](C(=O)N[C@H]2Cc3cccc(C(=O)O)c3OB2O)c2ccc(P(=O)(O)O)cc2)cs1 (racemic) .
Response: 10 to 50 µM

---

Consider the following compounds; for each one, report its MIC.
Tested on: N. gonorrhoeae ATCC 49226
assay_info: Liquid broth MIC in Fastidious broth
test_parameters: Neisseria gonorrhoeae, ATCC49226, read-out: Minimum Inhibitory Concentration, ATCC 49226

Query: Tell me its MIC given O=C(NCCCS(=O)(=O)N1CCN(C(=O)NC(C(=O)N[C@H]2Cc3ccc(F)c(C(=O)O)c3OB2O)c2cc(F)c(O)c(O)c2Cl)C1=O)c1nccs1 (stereo partly drawn) [Example 274] as the entry.
Response: 16 to 32 µg/mL

Query: Quote MIC reported for O=C(NCCCN1CCN(C(=O)NC(C(=O)N[C@H]2Cc3ccc(F)c(C(=O)O)c3OB2O)c2cc(F)c(O)c(O)c2Cl)C1=O)Nc1ccncc1 (stereo partly drawn) [Example 285] please.
Response: > 64 µg/mL

Query: For the compound O=C(NCCCS(=O)(=O)N1CCN(C(=O)N[C@@H](C(=O)N[C@H]2Cc3ccc(F)c(C(=O)O)c3OB2O)c2cc(F)c(O)c(O)c2Cl)C1=O)c1cccc(O)c1 [Example 271] , give its reported MIC.
Response: 16 to 32 µg/mL

---

Kindly supply the reported MIC values for the records listed here.
Test system: A. baumannii ATCC 17978
assay_info: microbe, parasite or virus in culture
Format: cell-based
test_parameters: Acinetobacter baumannii, ATCC17978, read-out: MIC, A. baumannii ATCC 17978

Query: Recall and state the measured MIC for O=C(O)c1c(F)ccc2c1OB(O)[C@@H](NC(=O)[C@@H](NC(=O)N1CCN(Cc3ccc(O)c(O)c3Cl)C(=O)C1=O)c1ccc(P(=O)(O)O)c(F)c1F)C2 [Example 165] .
Response: < 1 µg/mL

Query: Look up MIC of O=C(NCCS(=O)(=O)N1CCN(C(=O)N[C@H](C(=O)N[C@H]2Cc3ccc(F)c(C(=O)O)c3OB2O)c2cc(F)c(O)c(O)c2Cl)C1=O)c1ccc(O)cc1 [Example 286] and report it.
Response: > 128 µg/mL

Query: Report MIC for O=C(NCCCN1CCN(C(=O)NC(C(=O)N[C@H]2Cc3ccc(F)c(C(=O)O)c3OB2O)c2cc(F)c(O)c(O)c2Cl)C1=O)c1nccs1 (stereo partly shown) [Example 257]
Response: < 1 µg/mL

Query: Return value of MIC for input O=C(O)c1c(F)ccc2c1OB(O)[C@@H](NC(=O)C(NC(=O)N1CCN(C3CCN(C(=O)Nc4cc(O)ccc4Cl)CC3)C(=O)C1=O)c1cc(F)c(O)c(O)c1Cl)C2 (stereo partly shown) [Example 483] , no commentary.
Response: < 1 µg/mL

Query: Specify reported MIC for the compound shown: O=C(O)c1c(F)ccc2c1OB(O)[C@@H](NC(=O)C(NC(=O)N1CCN(Cc3cc(F)c(O)c(O)c3Cl)C(=O)C1=O)c1ccc(P(=O)(O)O)cc1)C2 (stereo partly shown) [Example 45]
Response: < 1 µg/mL

Query: Give the reported value of MIC for this record: O=C(NCCN1CCN(C(=O)NC(C(=O)N[C@H]2Cc3ccc(F)c(C(=O)O)c3OB2O)c2cc(F)c(O)c(O)c2Cl)C1=O)c1nccs1 (stereo partly shown) [Example 247]
Response: < 1 µg/mL

Query: Provide measured MIC value, entry: O=C(O)c1c(F)ccc2c1OB(O)[C@@H](NC(=O)C(NC(=O)N1CCN(C3CCN(C(=O)c4c(F)ccc(O)c4F)CC3)C(=O)C1=O)c1cc(F)c(O)c(O)c1Cl)C2 (stereo partly shown) [Example 308]
Response: < 1 µg/mL

Query: Specify measured MIC for O=C(NCCCN1CCN(C(=O)NC(C(=O)N[C@H]2Cc3ccc(F)c(C(=O)O)c3OB2O)c2cc(F)c(O)c(O)c2Cl)C(=O)C1=O)c1cc(F)ncc1F (mixture of isomers) [Example 405] .
Response: < 1 µg/mL

Query: Given the compound O=C(NCCCN1CCN(C(=O)NC(C(=O)N[C@H]2Cc3ccc(F)c(C(=O)O)c3OB2O)c2cc(F)c(O)c(O)c2Cl)C(=O)C1=O)c1ccncc1 (stereo partly shown) [Example 205] , write its reported MIC.
Response: < 1 µg/mL

Query: # return recorded MIC for input O=C(O)c1c(F)ccc2c1OB(O)[C@@H](NC(=O)C(NC(=O)N1CCN(CCNC(=O)[C@@H]3CCCN3)C1=O)c1cc(F)c(O)c(O)c1Cl)C2 (stereo partly shown) [Example 248]
Response: < 1 µg/mL

Query: Give the value of MIC reported for the following: O=C(O)c1c(F)ccc2c1OB(O)[C@@H](NC(=O)C(NC(=O)N1CCN(C3CCN(C(=O)Nc4ccc(F)c(O)c4)CC3)C(=O)C1=O)c1cc(F)c(O)c(O)c1Cl)C2 (stereo partly shown) [Example 480]
Response: < 1 µg/mL

Query: Identify MIC associated with the compound O=C(NCCCN1CCN(C(=O)NC(C(=O)N[C@H]2Cc3ccc(F)c(C(=O)O)c3OB2O)c2cc(F)c(O)c(O)c2Cl)C(=O)C1=O)c1ccc(O)c(F)c1 (stereo partly shown) [Example 304]
Response: < 1 µg/mL

Query: Give the reported MIC for this compound. O=C(NCCCN1CCN(C(=O)N[C@@H](C(=O)N[C@H]2Cc3ccc(F)c(C(=O)O)c3OB2O)c2cc(F)c(O)c(O)c2Cl)C(=O)C1=O)c1c(F)cc(O)cc1F (racemic) [Example 420]
Response: < 1 µg/mL

Query: // fetch MIC given entry O=C(O)c1c(F)ccc2c1OB(O)[C@@H](NC(=O)C(NC(=O)N1CCN(C3CCN(C(=O)c4cc(O)cc(O)c4)CC3)C(=O)C1=O)c1cc(F)c(O)c(O)c1Cl)C2 (stereo partly shown) [Example 309]
Response: < 1 µg/mL

Query: Please give the documented MIC of O=C(NCCN1CCN(C(=O)NC(C(=O)N[C@H]2Cc3ccc(F)c(C(=O)O)c3OB2O)c2cc(F)c(O)c(O)c2Cl)C1=O)c1ccncc1 (stereo partly shown) [Example 245]
Response: < 1 µg/mL

Query: Specify reported MIC for the compound shown: O=C(O)c1c(F)ccc2c1OB(O)[C@@H](NC(=O)C(NC(=O)N1CCN(CC3CCN(C(=O)c4cccc(O)c4)CC3)C(=O)C1=O)c1cc(F)c(O)c(O)c1Cl)C2 (stereo partly shown) [Example 475]
Response: < 1 µg/mL

Query: Check the records and state MIC for O=C(NCCCN1CCN(C(=O)NC(C(=O)N[C@H]2Cc3ccc(F)c(C(=O)O)c3OB2O)c2cc(F)c(O)c(O)c2Cl)C(=O)C1=O)Nc1ccncc1 (stereo partly shown) [Example 228]
Response: < 1 µg/mL

Query: Report MIC, nothing else, for this compound: O=C(O)c1c(F)ccc2c1OB(O)[C@@H](NC(=O)[C@@H](NC(=O)N1CCN(Cc3ccc(O)c(O)c3Cl)C(=O)C1=O)c1ccc(P(=O)(O)O)cc1)C2 (single isomer, unassigned) [Example 161]
Response: < 1 µg/mL

Query: Give the measured MIC for O=C(O)c1c(F)ccc2c1OB(O)[C@@H](NC(=O)[C@H](NC(=O)N1CCN(C3CCN(C(=O)Nc4c(F)ccc(O)c4F)CC3)C1=O)c1cc(F)c(O)c(O)c1Cl)C2 (single isomer, unassigned) [Example 454]
Response: < 1 µg/mL
